system: PC-3; assay: NCI tumour cell line growth inhibition, 48 h
Active and inactive are the calls of the source. Cut-off read from the data, not from the text of the source: active = GI50 up to about 1.1 µM and inactive = higher.
Recorded GI50 for the following compounds

Give its GI50 value. Item: C/C(=N\NC(=S)Nc1ccc(C)cc1)c1nc2cccnc2[nH]1
1.73 µM (inactive)

New cases:
Give its GI50 value. Item: COC(=O)C1C(=O)N(C)C(=O)N2CCCC12 (stereo not drawn)
> 100 µM (inactive)

Same for CC(=O)Oc1ccc(N2C(=O)C3c4[nH]c5ccccc5c4C4CCC(C(C)(C)C)CC4C3C2=O)cc1 (stereo not drawn)
2.79 µM (inactive)

Same for CCN1CC2=C(NC(=S)NC2c2cc(OC)c(OC)c(OC)c2)/C(=C/c2cc(OC)c(OC)c(OC)c2)C1 (stereo not drawn)
26.4 µM (inactive)

Same for CC1(C)CCC2(C(=O)OC3OC(CO)C(O)C(O)C3O)CCC3(CO)C(=CCC4C5(C)CC(O)C(O)C(C)(C(=O)OC6OC(CO)C(O)C(O)C6O)C5CCC43C)C2C1 (stereo not drawn)
> 100 µM (inactive)

Same for O=C1OC(=O)C2CCCC3CCCC1C32 (stereo not drawn)
> 100 µM (inactive)

Same for c1cc2c(c(NC3=NCCO3)c1)CCC2
67 µM (inactive)

Same for COC1CC(OC2C(C)OC(OC3C(C)OC(OC4C(O)CC(O[C@H]5CC[C@@]6(C)C(=CC[C@]7(O)[C@@H]6C[C@@H](OC(=O)/C=C/c6ccccc6)[C@@]6(C)[C@]7(O)CC[C@@]6(O)C(C)=O)C5)OC4C)CC3OC)CC2OC)OC(C)C1O (stereo partly drawn)
> 6.25 µM (inactive)

Value source: ChEMBL document CHEMBL1201862
